Molecular target: T1, wildtype feline IL-31 protein (Feline_IL31_wildtype) (feline); further: test concentration or dose not given here
T1 chain: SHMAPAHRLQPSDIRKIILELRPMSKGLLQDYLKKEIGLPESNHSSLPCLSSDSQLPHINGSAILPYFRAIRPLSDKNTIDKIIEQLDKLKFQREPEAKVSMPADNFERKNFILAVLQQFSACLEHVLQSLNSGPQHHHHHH
Assay: cell-based or functional assay
observable: % Inhibition Relative to Parent (pSTAT, FCWF-4 cells) (%)
Give the number; % is assumed, so skip it.

[
  {
    "binder": "A55 (antibody, V domains shown) VH: QVLLVQSGAEVRTPGASVKIFCKASGYSFTSYTIHWLRQAPAQGLEWMGNINPTSGYTENNQRFKDRLTLTADTSTNTAYMELSSLRSADTAMYYCARWGFAYDGEWSFDVWGAGTTVTVSS VL: EIQMTQSPSSLSASPGDRVTITCRASQGISIWLSWYQQKPGNIPKVLINKASNLHIGVPSRFSGSGSGTDFTLTISSLEPEDAATYYCLQSQTYPLTFGGGTKLEIK",
    "u": "%",
    "reported": 66.8
  },
  {
    "binder": "A48 (antibody, V domains shown) VH: QVLLVQSGAEVRTPGASVKIFCKASGYSFTSYTIHWLRQAPAQGLEWMGNINPTSGYTEANQRFKDRLTLTADTSTNTAYMELSSLRSADTAMYYCARWGFKYDGEWSFDVWGAGTTVTVSS VL: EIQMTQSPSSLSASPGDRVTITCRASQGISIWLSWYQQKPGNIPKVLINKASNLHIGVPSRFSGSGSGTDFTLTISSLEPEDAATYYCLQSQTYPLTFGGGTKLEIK",
    "u": "%",
    "reported": 47.3
  },
  {
    "binder": "A58 (antibody, V domains shown) VH: QVLLVQSGAEVRTPGASVKIFCKASGYSFTSYTIHWLRQAPAQGLEWMGNINPTSGYTENNQRFKDRLTLTADTSTNTAYMELSSLRSADTAMYYCARWGFKYDAEWSFDVWGAGTTVTVSS VL: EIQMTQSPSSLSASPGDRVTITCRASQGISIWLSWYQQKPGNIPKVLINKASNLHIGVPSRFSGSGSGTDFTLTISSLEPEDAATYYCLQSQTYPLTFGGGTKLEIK",
    "u": "%",
    "reported": 15.3
  }
]

Item: A45 (antibody, V domains shown) VH: QVLLVQSGAEVRTPGASVKIFCKASGYSFTSYTIHWLRQAPAQGLEWMGNINPTSGATENNQRFKDRLTLTADTSTNTAYMELSSLRSADTAMYYCARWGFKYDGEWSFDVWGAGTTVTVSS VL: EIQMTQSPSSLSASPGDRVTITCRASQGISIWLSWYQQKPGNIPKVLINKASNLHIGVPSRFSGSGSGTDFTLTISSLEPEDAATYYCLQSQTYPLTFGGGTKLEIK | % Inhibition Relative to Parent (pSTAT, FCWF-4 cells): 22.8

Item: A40 (antibody, V domains shown) VH: QVLLVQSGAEVRTPGASVKIFCKASGYSFTSYTIHWLRQAPAQGLEWMGNINATSGYTENNQRFKDRLTLTADTSTNTAYMELSSLRSADTAMYYCARWGFKYDGEWSFDVWGAGTTVTVSS VL: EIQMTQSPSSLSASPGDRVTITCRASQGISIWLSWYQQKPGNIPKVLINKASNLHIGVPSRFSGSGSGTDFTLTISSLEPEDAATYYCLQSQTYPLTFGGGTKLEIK | % Inhibition Relative to Parent (pSTAT, FCWF-4 cells): 5.7

Item: A63 (antibody, V domains shown) VH: QVLLVQSGAEVRTPGASVKIFCKASGYSFTSYTIHWLRQAPAQGLEWMGNINPTSGYTENNQRFKDRLTLTADTSTNTAYMELSSLRSADTAMYYCARWGFKYDGEWSADVWGAGTTVTVSS VL: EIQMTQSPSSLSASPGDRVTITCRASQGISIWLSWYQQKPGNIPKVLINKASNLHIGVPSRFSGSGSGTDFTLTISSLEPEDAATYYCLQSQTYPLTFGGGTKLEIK | % Inhibition Relative to Parent (pSTAT, FCWF-4 cells): -6

Item: A57 (antibody, V domains shown) VH: QVLLVQSGAEVRTPGASVKIFCKASGYSFTSYTIHWLRQAPAQGLEWMGNINPTSGYTENNQRFKDRLTLTADTSTNTAYMELSSLRSADTAMYYCARWGFKYAGEWSFDVWGAGTTVTVSS VL: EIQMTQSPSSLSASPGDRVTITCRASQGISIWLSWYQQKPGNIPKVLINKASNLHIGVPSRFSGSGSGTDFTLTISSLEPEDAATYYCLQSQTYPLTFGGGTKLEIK | % Inhibition Relative to Parent (pSTAT, FCWF-4 cells): 85.4

Item: A38 (antibody, V domains shown) VH: QVLLVQSGAEVRTPGASVKIFCKASGYSFTSYTIHWLRQAPAQGLEWMGNANPTSGYTENNQRFKDRLTLTADTSTNTAYMELSSLRSADTAMYYCARWGFKYDGEWSFDVWGAGTTVTVSS VL: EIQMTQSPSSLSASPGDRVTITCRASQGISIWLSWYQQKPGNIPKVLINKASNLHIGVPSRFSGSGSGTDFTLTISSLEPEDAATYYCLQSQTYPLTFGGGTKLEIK | % Inhibition Relative to Parent (pSTAT, FCWF-4 cells): 42.2

Item: A52 (antibody, V domains shown) VH: QVLLVQSGAEVRTPGASVKIFCKASGYSFTSYTIHWLRQAPAQGLEWMGNINPTSGYTENNQRFKDRLTLTADTSTNTAYMELSSLRSADTAMYYCARAGFKYDGEWSFDVWGAGTTVTVSS VL: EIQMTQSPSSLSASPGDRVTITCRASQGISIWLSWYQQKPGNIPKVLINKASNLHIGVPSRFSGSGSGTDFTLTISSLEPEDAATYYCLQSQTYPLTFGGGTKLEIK | % Inhibition Relative to Parent (pSTAT, FCWF-4 cells): -2.1

Item: A50 (antibody, V domains shown) VH: QVLLVQSGAEVRTPGASVKIFCKASGYSFTSYTIHWLRQAPAQGLEWMGNINPTSGYTENNARFKDRLTLTADTSTNTAYMELSSLRSADTAMYYCARWGFKYDGEWSFDVWGAGTTVTVSS VL: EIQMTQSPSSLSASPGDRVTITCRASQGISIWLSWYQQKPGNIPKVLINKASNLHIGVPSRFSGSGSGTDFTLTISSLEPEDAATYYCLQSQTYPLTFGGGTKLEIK | % Inhibition Relative to Parent (pSTAT, FCWF-4 cells): 55.5

Data origin, for the record: patent US20250136677A1
